Reference source: patent US20210380703A1

Target: T1, Goat anti-Human Kappa
T1 construct: Positive control; also called biotinylated goat anti-human kappa light chain
Test: ELISA; positive control; also: test concentration or dose not given here
Measured optical density by item
Form entry: value (OD) — number only.

Binder	Measured Property	Reading
365_E05 (antibody, V domains shown, VH/VL only) VH: EVQLLESGGGLVQPGGSLRLSCAASGFTFSSYGMHWVRQAPGKGLEWVAGINYNGGYTSYADSVKGRFTISRDNSKNTLYLQMNSLRAEDTAVYYCARSANWHDTALDYWGQGTLVTVSS VL: DIQMTQSPSSLSASVGDRVTITCRASQSIVSYVNWYQQKPGKAPKLLIYAATSLASGVPSRFSGSGSGTDFTLTISSLQPEDFATYYCQQSYDNPLTFGGGTKVEIK	optical density	3.36
371_E09 (antibody, V domains shown, VH/VL only) VH: EVQLLESGGGLVQPGGSLRLSCAASGFTFSDYSMNWVRQAPGKGLEWVSGINYNSGYTSYADSVKGRFTISRDNSKNTLYLQMNSLRAEDTAVYYCARGATWHDTHLDYWGQGTLVTVSS VL: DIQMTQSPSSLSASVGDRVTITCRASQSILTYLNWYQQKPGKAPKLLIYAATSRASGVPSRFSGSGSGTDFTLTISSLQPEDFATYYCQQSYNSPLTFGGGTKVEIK	optical density	3.15
372_H11 (antibody, V domains shown, VH/VL only) VH: EVQLLESGGGLVQPGGSLRLSCAASGFTFSSYGMHWVRQAPGKGLEWVAGINYNGGYTSYADSVKGRFTISRDNSKNTLYLQMNSLRAEDTAVYYCARGATWHDTHLDYWGQGTLVTVSS VL: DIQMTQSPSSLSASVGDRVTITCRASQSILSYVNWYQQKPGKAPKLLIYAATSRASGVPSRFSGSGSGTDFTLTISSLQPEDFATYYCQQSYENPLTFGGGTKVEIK	optical density	3.65
367_F09 (antibody, V domains shown, VH/VL only) VH: EVQLLESGGGLVQPGGSLRLSCAASGFTFDSYSMHWVRQAPGKGLEWVAGINYNGGYTSYADSVKGRFTISRDNSKNTLYLQMNSLRAEDTAVYYCARGATWHDTHLDYWGQGTLVTVSS VL: DIQMTQSPSSLSASVGDRVTITCRASQSILTYLNWYQQKPGKAPKLLIYAATSLASGVPSRFSGSGSGTDFTLTISSLQPEDFATYYCQQSDSNPLTFGGGTKVEIK	optical density	3.46

Name the reported optical density value associated with the binder 370_C06 (antibody, V domains shown, VH/VL only) VH: EVQLLESGGGLVQPGGSLRLSCAASGFTFSSYSMNWVRQAPGKGLEWVANINYNGGYKSYADSVKGRFTISRDNSKNTLYLQMNSLRAEDTAVYYCARGATWHDTHLDYWGQGTLVTVSS VL: DIQMTQSPSSLSASVGDRVTITCRASQSILTYVNWYQQKPGKAPKLLIYAASSLQSGVPSRFSGSGSGTDFTLTISSLQPEDFATYYCQQSYSTPLTFGGGTKVEIK
3.55
